Recorded GI50, one value per entry.
System: RPMI-8226 leukemia
Assay: NCI tumour cell line growth inhibition, 48 h
RECORDED METRIC: GI50

INSERT INTO results (molecule, result) VALUES
  ('C=C(CC1(CC(=C)c2ccc(C(=O)O)cc2)C(=O)N(C)C(=O)N(C)C1=O)c1ccc(C(=O)O)cc1', '21.8 µM'),
  ('CC1(C)CC2(C)OC2C2(C1)N=NC(=Nc1ccccc1)O2 (stereo not given)', '2.41 µM'),
  ('O=c1[nH]c(-c2ccccn2)nc2sc3c(c12)CCCCCC3', '3.63 µM'),
  ('CC[C@@]1(OC(=O)CN(C)C)C(=O)OCc2c1cc1n(c2=O)Cc2cc3ccccc3nc2-1', '0.00464 µM'),
  ('COc1cc(C(=O)N/N=C/c2cccc([N+](=O)[O-])c2)cc(OC)c1OC', '5.39 µM'),
  ('Cc1cc2c(cc1Cl)SC1=NN(C)C(c3ccccc3O)N1S2(=O)=O (stereo not given)', '> 100 µM'),
  ('O=c1[nH]c2cc(O)ccc2n2cc3c(F)cccc3c12', '4.38 µM'),
  ('Cn1cc(-c2nn3cc(-c4cccs4)nc3s2)c2cc(F)ccc21', '3.01 µM'),
  ('Nc1ccc2c(c1)CN1C(=O)c3ccccc3C1=N2', '34.1 µM'),
  ('C#Cc1ccc(-n2c(/C=C/c3cc(OC)c(OC)c(OC)c3)nc3ncccc3c2=O)cc1', '3.6 µM');

====

Recorded TGI, one value per entry.
System: DU-145 prostate
Assay: NCI tumour cell line growth inhibition, 48 h
RECORDED METRIC: TGI

INSERT INTO results (compound, tgt, recorded_metric, result) VALUES
  ('COc1ccc(S(=O)(=O)Nc2ccc(-c3csc(N4C(=O)/C(=C/C=C\c5ccccc5)N=C4c4ccccc4)n3)cc2)cc1Cl', 'DU-145 prostate', 'TGI', '91.6 µM'),
  ('CCCCCCCC(CC(=O)O)OC(=O)CC(CCCCCCC)OC1OC(C)C(O)C(O)C1OC1OC(C)C(O)C(O)C1O (stereo not given)', 'DU-145 prostate', 'TGI', '> 100 µM'),
  ('CC(=O)Nc1ncc2c(n1)-c1ccccc1OC2', 'DU-145 prostate', 'TGI', '> 100 µM'),
  ('COc1ccc(N=C2NN=C(c3c[nH]c4ccccc34)CS2)cc1OC', 'DU-145 prostate', 'TGI', '> 87.7 µM'),
  ('Nc1ncnc2c1ncn2Cc1ccc(C23CC4CC(CC(C4)C2)C3)c(O)c1', 'DU-145 prostate', 'TGI', '> 100 µM'),
  ('Cc1ccc(C2=Nn3c(nc4sc(-c5ccccc5)cc4c3=O)SC2)cc1', 'DU-145 prostate', 'TGI', '> 100 µM'),
  ('C=C1C(=O)O[C@H]2C(=O)[C@H](C)CCC[C@@](C)(O)/C=C\C[C@@]3(C)O[C@@H]3C[C@@H]12', 'DU-145 prostate', 'TGI', '27.6 µM'),
  ('CC(C)CC1c2[nH]c3ccccc3c2C[C@H]2C(=O)NC(COC(C)(C)C)C(=O)N12 (stereo not given in full)', 'DU-145 prostate', 'TGI', '> 100 µM'),
  ('COC1=CC2(C=CC1=O)CCN=c1c(O)c3c(c(O)c12)=NC=N3 (stereo not given)', 'DU-145 prostate', 'TGI', '> 100 µM'),
  ('O=C(NCCCCl)c1c(O)c2ccccc2[nH]c1=O', 'DU-145 prostate', 'TGI', '> 100 µM');

====

Test system: BT-549 breast
Test: NCI tumour cell line growth inhibition, 48 h
RECORDED METRIC: GI50

INSERT INTO assay_data (compound, result) VALUES
  ('Cc1csc(Nc2nc(-c3cccc(Cl)c3)nc(C(Cl)(Cl)Cl)n2)n1', '> 33.3 µM'),
  ('CC1SC2(CCCCC2)N(NC(=O)c2[nH]c3ccc(F)cc3c2-c2ccccc2)C1=O (stereo not given)', '> 100 µM'),
  ('O=C(NO)C(O)C(O)C(O)C(O)CO (stereo not given)', '> 100 µM'),
  ('CCCCCCCCCCCCCCCCCC1=NC(C)(C)CN1CCO', '19.8 µM'),
  ('COC1C(CO)OC(n2c3ccccc3c3c4c(c5c6ccccc6[nH]c5c32)C(=O)NC4=O)C(O)C1OC(=O)C(N)CCCCN (stereo not given)', '0.807 µM');

====

Tested on: NCI-H23 lung
Experiment: NCI tumour cell line growth inhibition, 48 h
Recorded TGI, one value per entry.
RECORDED METRIC: TGI (µM)

INSERT INTO results (molecule, tgt, measure_unit, inequality_operator, numeric_readout) VALUES
  ('O=[N+]([O-])c1cccc(-c2ncc(-c3ccc(Cl)cc3Cl)[nH]2)c1', 'NCI-H23 lung', 'µM', '=', 43.7),
  ('CC(=O)OCC1OC(n2c3c(c(-c4ccco4)c(C#N)c2=S)CCCC3)C(OC(C)=O)C(OC(C)=O)C1OC(C)=O (centres undefined)', 'NCI-H23 lung', 'µM', '>', 31.6),
  ('COc1ccc(NC(=O)C2=C(SC)C(=O)N=C2N)cc1', 'NCI-H23 lung', 'µM', '>', 100),
  ('CC[C@@]1(O)C(=O)OCc2c1cc1n(c2=O)Cc2cc3c(NC(C)=O)c(O)ccc3nc2-1', 'NCI-H23 lung', 'µM', '=', 9.15),
  ('O=C(O)c1ccc(Nc2cnc3ccc(C(F)(F)F)cc3n2)cc1', 'NCI-H23 lung', 'µM', '=', 33.5),
  ('C/C(=N/Nc1ccc([N+](=O)[O-])cc1[N+](=O)[O-])C(CC(C(=O)Nc1ccccc1C)/C(C)=N\Nc1ccc([N+](=O)[O-])cc1[N+](=O)[O-])C(=O)Nc1ccccc1C (centres undefined)', 'NCI-H23 lung', 'µM', '=', 25.5),
  ('Cn1cc(-c2nn3cc(-c4cccs4)nc3s2)c2cc(F)ccc21', 'NCI-H23 lung', 'µM', '>', 100),
  ('CCC1(N2C(=O)c3c(F)c(F)c(F)c(F)c3C2=O)C(=O)NC(=O)N(c2ccccc2)C1=O (centres undefined)', 'NCI-H23 lung', 'µM', '=', 4.02),
  ('COCCCN1C(=O)C2c3[nH]c4ccccc4c3C3CCC(C(C)(C)C)CC3C2C1=O (centres undefined)', 'NCI-H23 lung', 'µM', '=', 82.6);

====

System: SK-OV-3 ovarian
Experiment: NCI tumour cell line growth inhibition, 48 h; in the data active = GI50 below about 0.43 µM; inactive = the rest
Outcomes: label 1 = active, label 0 = inactive

INSERT INTO assay_data (compound, assigned_label) VALUES
  ('O=[N+]([O-])c1cccc(-c2ncc(-c3ccc(Cl)cc3Cl)[nH]2)c1', 'label 0'),
  ('CC1(C)CC2(C)OC2C2(C1)N=NC(=Nc1ccccc1)O2 (stereo unspecified)', 'label 0'),
  ('COc1ccc(S(=O)(=O)NCCNc2nccc(-c3c(-c4ccccc4)nc4sccn34)n2)cc1', 'label 0'),
  ('COC(=O)Nc1nc2ccc(Sc3ccc(NC(=O)Nc4cc(C(F)(F)F)ccc4F)cc3)cc2[nH]1', 'label 0'),
  ('CC(=O)N[C@@H]1CCC[C@H](C(=O)Nc2cc(-c3cnn4c3CC(C)(C)C4)c(Cl)cn2)C1', 'label 1'),
  ('Cc1cc2c(cc1Cl)SC1=NN(C)C(c3ccccc3O)N1S2(=O)=O (stereo unspecified)', 'label 0'),
  ('COc1cc(/C=C\c2cccnc2Nc2ccccc2)cc(OC)c1OC', 'label 0'),
  ('O=C(NO)C(O)C(O)C(O)C(O)CO (stereo unspecified)', 'label 0'),
  ('CCCCCCCCCCCCNC(=O)[C@H]1CSC(c2ccc(OC)c(F)c2)N1 (stereo partly specified)', 'label 0'),
  ('CCSc1nc(N)c2cnn(C)c2n1', 'label 0'),
  ('O=c1[nH]c(-c2ccccn2)nc2sc3c(c12)CCCCCC3', 'label 0'),
  ('O=C(CN=Cc1cccs1)CSC(c1ccccc1)c1ccccc1', 'label 0'),
  ('CC1SC2(CCCCC2)N(NC(=O)c2[nH]c3ccc(F)cc3c2-c2ccccc2)C1=O (stereo unspecified)', 'label 0'),
  ('COc1cc(C(=O)/C=C/c2c(C(F)(F)F)nc3sccn23)cc(OC)c1OC', 'label 0'),
  ('CCCCCCN1C(=O)CN=C1Nc1ccc2cc3ccc(NC4=NCC(=O)N4CCCCCC)cc3nc2c1', 'label 0'),
  ('COc1ccc(N=C2NN=C(c3c[nH]c4ccccc34)CS2)cc1OC', 'label 0');

====

System: K-562 leukemia
Assay: NCI tumour cell line growth inhibition, 48 h
RECORDED METRIC: TGI

INSERT INTO assay_data (molecule, recorded_metric, result) VALUES
  ('CCCCCCCCCCCCCCCC(=O)OCC1OC(n2ccc(N)nc2=O)C(O)C1O (stereo not drawn)', 'TGI', '> 100 µM'),
  ('N#Cc1ccc(N2Cc3cc(Cl)ccc3OC3=C2C(=O)N(Cc2ccccc2)C3=O)cc1', 'TGI', '2.02 µM'),
  ('C=C(CCC(C(=O)O)C1CCC2(C)C3=C(CCC12C)C1(C)CCC(O)C(C)(C)C1CC3)C(C)C (stereo not drawn)', 'TGI', '43.3 µM'),
  ('C/C(=C/CC[C@](C)(OC1OC(CO)C(O)C(O)C1O)[C@H]1CC[C@]2(C)[C@@H]1CC[C@@H]1[C@@]3(C)CC[C@H](O)C(C)(C)[C@@H]3C[C@H](O)[C@]12C)CO (stereo partly drawn)', 'TGI', '62.2 µM'),
  ('COc1cc(C2S/C(=C/c3ccccc3)C(=O)N2c2ccc(Cl)cc2)cc(OC)c1OC (stereo not drawn)', 'TGI', '> 100 µM'),
  ('COCCCN1C(=O)C2c3[nH]c4ccccc4c3C3CCC(C(C)(C)C)CC3C2C1=O (stereo not drawn)', 'TGI', '> 10 µM'),
  ('Cc1cccc(N2C(=O)/C(=C/c3ccc(N(CCC#N)CCC#N)cc3C)N=C2c2cc([N+](=O)[O-])ccc2Cl)c1', 'TGI', '> 100 µM'),
  ('COc1ccc(N=C2NN=C(c3c[nH]c4ccccc34)CS2)cc1OC', 'TGI', '> 100 µM');
